- Test system: Saccharomyces cerevisiae
- assay_summary: protein stability index of tFT-peptide fusion (C-terminal peptide) (PSI (0-1 scale)); higher = more stable (slower turnover);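 note: PSI is a weighted mean of sequencing reads over stability bins, variants kept only with over 10 reads, mCherry proximal and sfGFP distal, peptide attached via GGGS linker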
- experimental_context: genetic background: cdc34-1; temperature: 37 C
Please map values of protein stability index to classes as shown: low value = under 0.4, medium value = from 0.4 up to 0.6, high value = 0.6 and over

Worked set:
| polymer_sequence | assigned_class |
| --- | --- |
| FFFFSMFSFFIP | medium value |
| LFPVFFPLFAPA | low value |
| SPSFLVIFTMLL | medium value |

Problem: The entry to classify is LAVVLVWVPGRW ; which class holds it?
Solution: medium value

Problem: Quick one: SVLSFGVFCLVG
Solution: medium value

Problem: Quick one: GFVISSCRLFIL
Solution: medium value

Problem: Quick one: LFAIFLVVLLFR
Solution: low value

Problem: Quick one: FPCIFFFCLFIL
Solution: low value

Problem: Quick one: KKHKKGQKQKIN
Solution: medium value

Problem: Quick one: VFRLLLFFVFVF
Solution: low value

Problem: Quick one: LPHPLPFCFSLY
Solution: high value

Problem: Quick one: EKKRERQKGEME
Solution: high value

Problem: Quick one: FILATGKGRWVV
Solution: high value

Problem: Quick one: FTNLDYTKEKNN
Solution: medium value

Problem: Quick one: VWLAWCIVGGLG
Solution: medium value

---

- System: Saccharomyces cerevisiae
- assay_summary: protein stability index of tFT-peptide fusion (C-terminal peptide) (PSI (0-1 scale)); higher = more stable (slower turnover)
- experimental_context: genetic background: das1 deletion; temperature: 30 C
endpoint_name: protein stability index
Give the figure only, with no unit attached.

| polymer_sequence | protein stability index |
| --- | --- |
| LFLLSHYALCFY | 0.441 |
| RVFRRFCCVISM | 0.342 |
| WFSMSRLWVFYS | 0.619 |
| CKRWGVVSYVFV | 0.464 |
| SPSSLPRPLFLS | 0.616 |
| ASHLGLGCLVVC | 0.426 |
| RFGLPLLVVTWL | 0.394 |
| LVVIYPLLSSPV | 0.43 |

Problem: // lookup protein stability index for HDRLRGVFWRVP
Solution: 0.655

---

Here the recorded protein stability index is given for each entry.
- Tested on: Saccharomyces cerevisiae
- assay_summary: protein stability index of tFT-peptide fusion (C-terminal peptide) (PSI (0-1 scale)); higher = more stable (slower turnover)
- experimental_context: genetic background: wild type; temperature: 30 C

// solved cases for protein stability index follow
| polymer_sequence | protein stability index |
| --- | --- |
| EGGMLNAVRPRS | 0.663 |
| GGGGGLRGRGVR | 0.682 |
| PPPAPLPPRSSS | 0.638 |
| PTAPPRLRLSFC | 0.667 |
| AVVVGGGGWWWA | 0.801 |

Could you now look at the following sequence, please?
Problem: // lookup protein stability index for GGAAGRRAAEVG
Solution: 0.694

---

Here the recorded protein stability index is given for each entry.
- System: Saccharomyces cerevisiae
- assay_summary: protein stability index of tFT-peptide fusion (C-terminal peptide) (PSI (0-1 scale)); higher = more stable (slower turnover)
- experimental_context: genetic background: das1 deletion; temperature: 30 C
Give the figure only, with no unit attached.

| polymer_sequence | protein stability index |
| --- | --- |
| VGGSRGARLGVG | 0.389 |

Problem: Form entry - test system: Saccharomyces cerevisiae; read-out: protein stability index; sequence: RNNLHKKIRRGY
Solution: 0.661

Problem: Quick one: DSGMLDFLLMAW
Solution: 0.432

Problem: Quick one: VWFLLFVVWCGS
Solution: 0.217

Problem: Quick one: LCLLFLSFFFVC
Solution: 0.374

Problem: Quick one: LLCSLGFRFSLF
Solution: 0.651

Problem: Quick one: FSVLLLANFCFF
Solution: 0.409

Problem: Quick one: LRFMLLSFLVIL
Solution: 0.349

Problem: Quick one: CFTLSLCLAFFF
Solution: 0.403

Problem: Quick one: GFVLLCFCCRTW
Solution: 0.287

Problem: Quick one: PFLCLPFLLVSR
Solution: 0.35

Problem: Quick one: VLGPRFCFVCHA
Solution: 0.444

Problem: Quick one: VFDFVFHLRFVV
Solution: 0.427

Problem: Quick one: RTALSSPRPALL
Solution: 0.701

Problem: Quick one: FVMLSFLVSSLP
Solution: 0.346

Problem: Quick one: PFALTPPPSPRS
Solution: 0.384

Problem: Quick one: LSVSLFPIRYVG
Solution: 0.617

Problem: Quick one: LGCLVWGGVWGV
Solution: 0.625

Problem: Quick one: FVWAVGLVSASV
Solution: 0.402

Problem: Quick one: GLFLYCCLVSLL
Solution: 0.25

Problem: Quick one: YFLFLRLVFLFF
Solution: 0.233
